Assay: Plasma caffeine concentration by HPLC during recovery after exercise
Format: in vivo, human (trained cyclists)
Conditions: human, plasma, oral, 4 mg/kg BM, after 1 hr; carbohydrate and caffeine; read-out: plasma caffeine levels
endpoint-label: concentration at 1 h
Report the figure along with its unit, number first.

Value of measured concentration at 1 h for the entry "Cn1c(=O)c2c(ncn2C)n(C)c1=O" : 30 µM

---

Assay: Plasma caffeine concentration by HPLC during recovery after exercise
Type: in vivo, human (trained cyclists)
Settings: human, plasma, oral, 4 mg/kg BM, 1 hr recovery; oral caffeine 4 mg/kg BM at 0 and 120 min with carbohydrate; read-out: Plasma caffeine concentration
endpoint-label: concentration at 1 h (µM)
Enter your answer as a number in µM; do not include the unit.

Per the records, this compound ( "Cn1c(=O)c2c(ncn2C)n(C)c1=O" ) has concentration at 1 h equal to 31.5

---

Assay: Plasma caffeine concentration by HPLC during recovery after exercise
Assay type: in vivo, human (trained cyclists)
Conditions: human, plasma, oral, 4 mg/kg BM, after 4 hr; carbohydrate and caffeine; read-out: plasma caffeine levels
endpoint-label: concentration at 4 h

Query "Cn1c(=O)c2c(ncn2C)n(C)c1=O" yields concentration at 4 h of ~80 µM
